- Tested on: CCRIS mutagenicity, Ames/micronucleus/aberration tests
- protocol-details: CCRIS mutagenicity studies
- condition-summary: Test System: AMES SALMONELLA TYPHIMURIUM; Strain/Indicator: TA98; Metabolic Activation: NONE; Method: STANDARD PLATE
Active and inactive are the calls of the source. The rule behind the calls is not given here.
Possible outcomes: t = active, f = inactive

1) CC1=CC(=O)C=C2CC[C@@H]3[C@H](CC[C@]4(C)C(=O)CC[C@@H]34)[C@@]12C; f
2) O=[N+]([O-])c1ccc2ccc3cc4c(c5ccc1c2c35)C=CCC4; t
3) ClC1=C(Cl)[C@]2(Cl)[C@@H]3[C@H]4C[C@H]([C@@H]5O[C@H]45)[C@@H]3[C@@]1(Cl)C2(Cl)Cl; f
4) CCN(CC)C(=O)/C(Cl)=C(\C)OP(=O)(OC)OC; f
5) BrCc1c2ccccc2cc2ccc3ccccc3c12; t
6) COP(=S)(OC)Oc1ccc([N+](=O)[O-])c(C)c1; f
7) O=C(c1ccccc1)C1OC1c1ccccc1 (centres undefined); f
8) C[C@]12C=CC3=C4CCC(=O)C=C4CC[C@H]3[C@@H]1CC[C@@H]2O; f
9) C1COCCOCCOCCOCCO1; f
10) CN(C)CCO; f
11) COC(=O)c1oc([N+](=O)[O-])c(-c2ccccc2)c1-c1ccccc1; t
12) CC(=O)Nc1ccc(Cc2ccc(NC(C)=O)cc2)cc1; f
13) c1ccc2cnncc2c1; f
14) COc1cc([C@@H]2c3cc4c(cc3[C@H](O)[C@H]3COC(=O)[C@H]23)OCO4)cc(OC)c1OC; f
15) CC(=O)CC(=O)CCC(=O)O; f
16) CCN(CC)CCCC(C)Nc1ccnc2cc(Cl)ccc12 (centres undefined); t
17) N#CCCNCCC#N; f
18) Cl/C=C/C[N+]12CN3CN(CN(C3)C1)C2; f
19) O=[N+]([O-])c1c2c(cc3c1ccc1ccccc13)C=C[C@@H](O)[C@@H]2O; t
20) CN(C)CCCNc1c2ccccc2nc2c(F)ccc([N+](=O)[O-])c12; t
21) CC(C)=CCC/C(C)=C/C=O; f
22) OCCBr; f
23) O=c1[nH]cnc2[nH]ncc12; f
24) CC(C)CON=O; f
